System: 24-hydroxylase (24OHase) gene promoter
Test: In vitro transcription assay (24-hydroxylase promoter-luciferase in ROS 17/2.8 bone cells)
Type: cell-based, rat
Settings: relative to the native hormone 1,25(OH)2D3 in the same assay; (value for native hormone)/(value for working example); >1 = more active
Record form. Attribute: 24OHase Transcription Relative Activity. Fill in for each entry.
Write the number on its own, no unit after it.

-- ask Record C=C1[C@H](O)CC(=C/C=C2\CCC[C@@]3(C)C2CC[C@@H]3[C@H](C)[C@@H](C)CCC(C)(C)O)C[C@H]1O (stereo partly shown) : what is its 24OHase Transcription Relative Activity with 24-hydroxylase (24OHase) gene promoter?
-- reply 10

-- ask Same again, this time with C=C1[C@H](O)CC(=C/C=C2\CCC[C@@]3(C)C2CC[C@@H]3[C@@H](C)[C@H](C)CCC(C)(C)O)C[C@H]1O (stereo partly shown)
-- reply 38

-- ask Same again, this time with C=C1[C@H](O)CC(=C/C=C2\CCC[C@@]3(C)C2CC[C@@H]3[C@H](C)[C@H](C)CCC(C)(C)O)C[C@H]1O (stereo partly shown)
-- reply 0.05

-- ask Same again, this time with C=C1[C@H](O)CC(=C/C=C2\CCC[C@@]3(C)C2CC[C@@H]3[C@@H](C)[C@@H](C)CCC(C)(C)O)C[C@H]1O (stereo partly shown)
-- reply 0.1

====

Record form. Attribute: Ki. Fill in for each entry.
Molecular target: vitamin D receptor (full-length recombinant rat receptor) (Rattus norvegicus)
Construct: Full-length recombinant rat receptor was expressed in E. coli; His tag (C)
Sequence (P13053 1-423): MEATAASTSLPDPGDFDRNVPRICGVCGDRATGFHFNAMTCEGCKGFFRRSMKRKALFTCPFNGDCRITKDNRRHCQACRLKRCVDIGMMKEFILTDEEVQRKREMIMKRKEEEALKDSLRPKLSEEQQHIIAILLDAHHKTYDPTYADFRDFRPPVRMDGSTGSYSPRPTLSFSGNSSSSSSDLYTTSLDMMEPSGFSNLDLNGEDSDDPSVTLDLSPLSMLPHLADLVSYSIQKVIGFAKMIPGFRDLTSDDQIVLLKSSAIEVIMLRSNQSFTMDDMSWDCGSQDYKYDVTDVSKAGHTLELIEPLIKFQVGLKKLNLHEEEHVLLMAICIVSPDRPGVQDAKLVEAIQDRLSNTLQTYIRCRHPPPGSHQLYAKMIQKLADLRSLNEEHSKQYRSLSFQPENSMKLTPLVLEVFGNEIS
Experiment: Vitamin D receptor competitive binding
Conditions: read-out: Competitive VDR Binding (Ki)
Answer with a number only, understood to be in nM.

-- ask Quick check: Ki of C=C1[C@H](O)CC(=C/C=C2\CCC[C@@]3(C)C2CC[C@@H]3[C@@H](C)[C@@H](C)CCC(C)(C)O)C[C@H]1O (stereo partly shown) [AGS-2] ?
-- reply 8

-- ask Same again, this time with C=C1[C@H](O)CC(=C/C=C2\CCC[C@@]3(C)C2CC[C@@H]3[C@@H](C)[C@H](C)CCC(C)(C)O)C[C@H]1O (stereo partly shown) [AGS-1]
-- reply 0.07

-- ask Same again, this time with C=C1[C@H](O)CC(=C/C=C2\CCC[C@@]3(C)C2CC[C@@H]3[C@H](C)[C@H](C)CCC(C)(C)O)C[C@H]1O (stereo partly shown) [SAG-2]
-- reply 0.2

-- ask Same again, this time with C=C1[C@H](O)CC(=C/C=C2\CCC[C@@]3(C)C2CC[C@@H]3[C@H](C)[C@@H](C)CCC(C)(C)O)C[C@H]1O (stereo partly shown) [SAG-1]
-- reply 0.09
